test_description: liver-stage malaria parasite growth inhibition, primary screen, cell-based, HepG2, luciferase luminescence, HepG2 viability (AID 624349);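 note: 100% = mean of DMSO negative control wells on the same plate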
conditions: P. berghei liver stage in HepG2, luciferase luminescence, concentration not given here; measured here: HepG2 viability without parasites
Non-standard residues stand in square brackets, D forms with d. Residues, ends and D or L forms follow the SMILES beside them. pGlu = O=C1CC[C@@H](C(=O)O)N1; Thz = O=C(O)[C@@H]1CSCN1
What viability was measured for each of the following?
One number for each entry, in %.

Completed entries (count: 3):
Query :: Would you kindly share the measured viability for `O=C1N=C(O)CN1N=Cc1ccc(-c2ccc([N+](=O)[O-])cc2)o1` ?
Result :: 83.3

Query :: Cool, now CC(C)CC(NC(=O)C(COC(C)(C)C)NC(=O)C(Cc1ccc(O)cc1)NC(=O)C(CO)NC(=O)C(Cc1c[nH]c2ccccc12)NC(=O)C(Cc1cnc[nH]1)NC(=O)C1CCC(=O)N1)C(=O)N[C@@H](CCCN=C(N)N)C(=O)N1CCCC1C(=O)NNC(N)=O (some centres not stated)
Result :: 90.6

Query :: Query CN(C)C1C(=O)C(C(N)=O)=C(O)C2(O)C(=O)C3=C(O)c4c(O)ccc(Cl)c4C(O)C3CC12 (configuration not stated) next
Result :: 103

Hi, could you look up viability for each item in my list?
1. O=S(=O)(NCCNC/C=C/c1ccc(Br)cc1)c1cccc2cnccc12
2. CN1CCN2c3ncccc3Cc3ccccc3C2C1 (configuration not stated)
3. O=C1CC[C@@H](C(=O)N2CSC[C@H]2C(=O)O)N1 ([pGlu]-[Thz]-OH)

Result ::
1. 66.5
2. 76.9
3. 115
